assay: Inhibition of Plasmodium falciparum HGXPRT using PRib-PP as substrate by Hanes-plot based method
pKi: −log10 of the molar value.
Reported pKi by item:
MEASURED ATTRIBUTE: pKi

In [3]: df
Out[3]:
                                    compound  measured_attribute  value
 0  Nc1nc2c(ncn2C[C@@H]2CCCN2CCP(=O)([O-])[O-])c(=O)[nH]1.[Na+].[Na+]                 pKi   5.30
 1  Nc1nc2c(ncn2CCN(CCOCCP(=O)(O)O)CCP(=O)(O)O)c(=O)[nH]1                 pKi   6.72
 2  O=c1[nH]cnc2c1ncn2CC1CN(CCP(=O)([O-])[O-])CCN1CCP(=O)([O-])[O-].[Na+].[Na+].[Na+].[Na+] (configuration not stated)                 pKi   5.52
 3  O=c1[nH]cnc2c1ncn2C[C@H]1CCCN1CCP(=O)([O-])[O-].[Na+].[Na+]                 pKi   4.82
 4  O=c1[nH]cnc2c1ncn2C[C@@H]1CCCN1CCP(=O)([O-])[O-].[Na+].[Na+]                 pKi   4.36
 5  Nc1nc2c(ncn2[C@H]2CCN(C(=O)CP(=O)(O)O)C2)c(=O)[nH]1                 pKi   6.40
 6  O=c1[nH]cnc2c1ncn2CCN(CCOCCP(=O)(O)O)CCP(=O)(O)O                 pKi   6.70
 7  O=c1[nH]cnc2c(C3=NCCN3CCCP(=O)(O)O)c[nH]c12                 pKi   5.33
 8  Nc1nc2c(ncn2CC2CCCN(CP(=O)([O-])[O-])C2)c(=O)[nH]1.[Na+].[Na+] (configuration not stated)                 pKi   5.70
 9  Nc1nc2c(ncn2CC2CN(CCP(=O)([O-])[O-])CCN2CCP(=O)([O-])[O-])c(=O)[nH]1.[Na+].[Na+].[Na+].[Na+] (configuration not stated)                 pKi   5.70
10  Nc1nc2c(ncn2C[C@H]2CCCN2CCP(=O)([O-])[O-])c(=O)[nH]1.[Na+].[Na+]                 pKi   4.52
11  O=c1[nH]cnc2c1ncn2CC1CCCN(CP(=O)([O-])[O-])C1.[Na+].[Na+] (configuration not stated)                 pKi   4.77

----------
system: Plasmodium falciparum; assay: Antimalarial activity against asexual stage of chloroquine-resistant Plasmodium falciparum W2 infected in human erythrocytes assessed as parasite growth inhibition measured after 96 hrs by [3H]-hypoxanthine incorporation assay; type: functional, organism-based
Mark t for IC50 under 6 µM, f if at or over.

COMPOUND	LABEL
CCOC(=O)[C@H](Cc1ccccc1)NP(=O)(CCN1CCC[C@@H]1Cn1cnc2c(=O)[nH]cnc21)N[C@@H](Cc1ccccc1)C(=O)OCC	f
CCOC(=O)[C@H](Cc1ccccc1)NP(=O)(CCN1CCN(CP(=O)(N[C@@H](Cc2ccccc2)C(=O)OCC)N[C@@H](Cc2ccccc2)C(=O)OCC)CC1Cn1cnc2c(=O)[nH]cnc21)N[C@@H](Cc1ccccc1)C(=O)OCC (stereo partly drawn)	t
CCOC(=O)[C@H](Cc1ccccc1)NP(=O)(CCN1CCC[C@H]1Cn1cnc2c(=O)[nH]cnc21)N[C@@H](Cc1ccccc1)C(=O)OCC	f
CCOC(=O)[C@H](Cc1ccccc1)NP(=O)(CN1CCCC(Cn2cnc3c(=O)[nH]cnc32)C1)N[C@@H](Cc1ccccc1)C(=O)OCC (stereo partly drawn)	f
CCOC(=O)[C@H](Cc1ccccc1)NP(=O)(CCN1CCC[C@H]1Cn1cnc2c(=O)[nH]c(N)nc21)N[C@@H](Cc1ccccc1)C(=O)OCC	t
CCOC(=O)[C@H](Cc1ccccc1)NP(=O)(CCN1CCN(CP(=O)(N[C@@H](Cc2ccccc2)C(=O)OCC)N[C@@H](Cc2ccccc2)C(=O)OCC)CC1Cn1cnc2c(=O)[nH]c(N)nc21)N[C@@H](Cc1ccccc1)C(=O)OCC (stereo partly drawn)	f
CCOC(=O)[C@H](Cc1ccccc1)NP(=O)(CN1CCCC(Cn2cnc3c(=O)[nH]c(N)nc32)C1)N[C@@H](Cc1ccccc1)C(=O)OCC (stereo partly drawn)	t
CCOC(=O)[C@H](Cc1ccccc1)NP(=O)(CCN1CCC[C@@H]1Cn1cnc2c(=O)[nH]c(N)nc21)N[C@@H](Cc1ccccc1)C(=O)OCC	f
